target: FAD-linked sulfhydryl oxidase ALR (Homo sapiens) (UniProt P55789); experiment: ALR-catalysed DTT oxidation blockers – biochemical, H2O2 detection, HRP-luminol luminescence, single point, primary screen (AID 485317); details: purified ALR, active compounds read high, concentration not given here
Sequence (P55789 whole entry, looked up): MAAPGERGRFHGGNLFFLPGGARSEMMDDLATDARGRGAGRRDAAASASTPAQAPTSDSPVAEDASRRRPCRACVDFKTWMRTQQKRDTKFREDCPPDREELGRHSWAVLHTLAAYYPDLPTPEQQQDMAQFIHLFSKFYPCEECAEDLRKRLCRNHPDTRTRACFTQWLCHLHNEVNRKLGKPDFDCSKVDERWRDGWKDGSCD
Among all 290,000 compounds or so, about 11,000 (3.8%) were called active. For the sample, actives were picked, then their nearest neighbours and some compounds at random.
inhibition for assorted compounds
# output: bare number, implied unit %

Example results:
INSERT INTO results (compound, numeric_readout) VALUES
  ('Cc1nn(C)c(C)c1NS(=O)(=O)c1ccc(OC(F)(F)F)cc1', -3.04),
  ('CCCCNC(=O)N(O)C1N(/N=C/c2ccccc2O)C(=S)SC1(C)C (centres undefined)', -2.9);

(Q) Name the recorded inhibition for "O=C(COC(=O)c1cccc(Cl)c1)NC1CCCCCCC1" .
(A) -2.57

(Q) // query inhibition value for entry Cc1ccccc1NC(=O)C(C)OC(=O)CCC(=O)N(CC(C)C)c1c(N)n(CC(C)C)c(=O)[nH]c1=O (centres undefined)
(A) -8.82

----------
Reported inhibition values for the following compounds.
target: FAD-linked sulfhydryl oxidase ALR (Homo sapiens); assay: ALR-catalysed DTT oxidation blockers – biochemical, H2O2 detection, HRP-luminol luminescence, single point, primary screen (AID 485317); details: purified ALR, active compounds read high, concentration not given here
Hit rate of the full screen: of about 290,000 compounds, about 11,000 (3.8%) were called active. The list comes from a sample in which actives are over-represented; it also holds close analogues and randomly drawn compounds.
Record the value in %, omitting the unit from your answer.

Here are 3 compounds together with their reported answers.
INSERT INTO results (compound, readout_type, numeric_readout) VALUES
  ('O=c1cc(CCl)nc2scc(-c3ccccc3)n12', 'inhibition', 60.8),
  ('Cc1ccc(N=C2SCCCN2C(=O)c2cccc(N3C(=O)CCC3=O)c2)cc1Cl', 'inhibition', -9.4),
  ('CCCN(C(=O)c1nc2nccc(C)n2n1)c1c(N)n(Cc2ccccc2)c(=O)[nH]c1=O', 'inhibition', 1.52);

(Q) I have this compound here, "Cc1ccc(COC(=O)CN2C(=O)NC3(CCCC3)C2=O)cc1" , and I need its recorded inhibition.
(A) -0.909

(Q) Reported inhibition for "Cc1csc(=NC(=O)c2ccccc2)n1CCO" : what is it?
(A) 99

(Q) Item under review: "O=c1[nH]c(/C=C/c2cccc(Br)c2)nc2ccccc12" . Reported inhibition?
(A) -2.23

(Q) Recorded inhibition for "O=C1COc2ccc(C(=O)COC(=O)c3ccccc3Cl)cc2N1" , please?
(A) -5.15

(Q) Given "COc1ccc(S(=O)(=O)Nc2cc(C)on2)cc1NC(C)=O" , state its recorded inhibition.
(A) -7.72

(Q) Given the entry "CCOc1ccc(NC(=O)CN(C)C(=O)CCSc2ccc(F)cc2)cc1OCC" , report its measured inhibition.
(A) -3.71

(Q) Please look up its inhibition: O=C(COc1ccc(F)cc1Br)NCC1COc2ccccc2O1 (centres undefined)
(A) -3.27

(Q) Please report the recorded inhibition for "Cn1c(Nc2cccc(Cl)c2)nc2ccccc21" .
(A) 10.5

(Q) Return reported inhibition; argument: "C=C(C)CNC(=S)/N=c1\scc(C)n1CC"
(A) 18

(Q) Value lookup for inhibition; key = "O=C(CN1CCN(c2ccccn2)CC1)Nc1ccc(Br)cc1"
(A) -8.03

(Q) Which value of inhibition has been reported for "O=C(Cc1ccccc1)Nc1ccc(C(=O)Nc2ccccc2C(=O)O)cc1" in the records?
(A) 87.1

(Q) # lookup: inhibition of "O=C(c1cnccn1)N1CCN(S(=O)(=O)c2cccc(Cl)c2)CC1"
(A) -2.25

(Q) Given the compound "COc1ccc(-c2c(-c3cc(OC)cc(OC)c3)n(C)c3ccc(-c4ccn[nH]4)cc23)cc1" , what is its reported inhibition?
(A) -7.81

(Q) What value of inhibition has been reported for the following compound? "O=C(c1ccc(Cl)nc1)N1CCN(S(=O)(=O)c2ccc3c(c2)OCCO3)CC1"
(A) 0.752

----------
molecular target: FAD-linked sulfhydryl oxidase ALR (Homo sapiens); experiment: ALR-catalysed DTT oxidation blockers – biochemical, H2O2 detection, HRP-luminol luminescence, single point, primary screen (AID 485317); details: purified ALR, active compounds read high, concentration not given here
The whole screen tested about 290,000 compounds, of which about 11,000 (3.8%) were called active. This excerpt belongs to a sample that is enriched for actives.
Overview of recorded inhibition for various molecules
Please respond with the number in % and leave the unit unwritten.

Examples with their reported inhibition follow.
INSERT INTO measurements (molecule, readout_type, unit_abbreviation, numeric_readout) VALUES
  ('Cc1nnc(SCc2cccc(Cl)c2)n(N)c1=O', 'inhibition', '%', -0.251),
  ('CS(=O)(=O)N1CCN=C1SCc1ccc(F)cc1', 'inhibition', '%', 98.4),
  ('Nc1c(NCCc2ccccc2)c2ccccc2oc1=O', 'inhibition', '%', 98.8);

(Q) Which value of inhibition has been reported for "COc1ccc(NC(=O)N(C)C[C@H]2Oc3ccc(NC(=O)C4CC4)cc3C(=O)N([C@H](C)CO)C[C@@H]2C)cc1" in the records?
(A) -0.429

(Q) Fill in: inhibition of "O=C(C1CCN(Cc2ccc(Cl)cc2)CC1)N1CCN(Cc2ccc3c(c2)OCO3)CC1" is ___
(A) -2.64

(Q) Which inhibition reading was recorded for the molecule "O=S(=O)(c1ccc(F)cc1)N1CCN=C1SCc1cccc(F)c1" ?
(A) -6.25

----------
target: FAD-linked sulfhydryl oxidase ALR (Homo sapiens) (UniProt P55789); assay: ALR-catalysed DTT oxidation blockers – biochemical, H2O2 detection, HRP-luminol luminescence, single point, primary screen (AID 485317); conditions: purified ALR, active compounds read high, concentration not given here
Screen size: about 290,000 compounds; about 11,000 (3.8%) were called active. The full list was thinned out, with actives kept by preference.
inhibition overview
Your answer is read as %, so omit the unit and give the number.

Known results for molecules:
INSERT INTO results (molecule, readout_type, numeric_readout) VALUES
  ('Cc1cccc(C(=O)N[C@H](C(=O)NCc2cccs2)C(C)C)c1', 'inhibition', 0.403),
  ('COc1ccccc1OCC(=O)OCc1cc(-c2ccco2)on1', 'inhibition', -3.11),
  ('CCN(CC(=O)Nc1cc(Cl)ccc1C)C(=O)Cn1c(=O)cnc2ccccc21', 'inhibition', 0.937);

Could you now look at the following molecule, please?
(Q) Can you share its inhibition? I mean this molecule: "Cc1c(NC(=O)CN(C)CC(=O)Nc2ccc(F)c(F)c2F)c(=O)n(-c2ccccc2)n1C"
(A) -2.04

----------
Parameter: inhibition. Scope: all listed entries.
target: FAD-linked sulfhydryl oxidase ALR (Homo sapiens); experiment: ALR-catalysed DTT oxidation blockers – biochemical, H2O2 detection, HRP-luminol luminescence, single point, primary screen (AID 485317); details: purified ALR, active compounds read high, concentration not given here
Hit rate of the full screen: of about 290,000 compounds, about 11,000 (3.8%) were called active. This is one part of a sample in which actives are shown more often than they occur.

As a guide, the following entries are already answered.
INSERT INTO assay_data (molecule, system_name, readout_type, result) VALUES
  ('COc1ccc([C@H]2CC(=O)C=C(/C=C/c3ccccc3)C2)cc1', 'FAD-linked sulfhydryl oxidase ALR (Homo sapiens)', 'inhibition', '1.57% (inactive)'),
  ('Cc1ccc(C(=O)N/C(=C/c2cccs2)C(=O)NCC2CCCO2)cc1 (stereo not drawn)', 'FAD-linked sulfhydryl oxidase ALR (Homo sapiens)', 'inhibition', '-0.67% (inactive)'),
  ('Cc1csc(NC(=O)CSc2nc(=O)n(CCCN(C)C)c3c2CCC3)n1', 'FAD-linked sulfhydryl oxidase ALR (Homo sapiens)', 'inhibition', '-272% (inactive)'),
  ('COc1ccccc1N1CCN(/N=C/c2ccc(O)cc2O)CC1', 'FAD-linked sulfhydryl oxidase ALR (Homo sapiens)', 'inhibition', '1.54% (inactive)'),
  ('FC(F)(F)c1nc2ccccc2nc1N/N=C/c1ccc(Cl)cc1', 'FAD-linked sulfhydryl oxidase ALR (Homo sapiens)', 'inhibition', '-14.4% (inactive)');

(Q) Form field: reported inhibition of "Cc1cc(C(=O)OCC(=O)Nc2ccccc2Cl)c(C)o1"
(A) -4% (inactive)

(Q) Which inhibition value belongs to "CC(C)Oc1ccc(C(=O)NCC(=O)Nc2ccc3c(c2)CCC3)cc1" ?
(A) 1.47% (inactive)

----------
biological target: FAD-linked sulfhydryl oxidase ALR (Homo sapiens); assay: ALR-catalysed DTT oxidation blockers – biochemical, H2O2 detection, HRP-luminol luminescence, single point, primary screen (AID 485317); conditions: purified ALR, active compounds read high, concentration not given here
In all, about 290,000 compounds went through this assay and about 11,000 (3.8%) were called active. For the sample, actives were picked, then their nearest neighbours and some compounds at random.
Readout type: inhibition (%)
Lab book: enter the figure in %, no units written.

Here is how some molecules turned out for inhibition.
INSERT INTO measurements (molecule, numeric_readout) VALUES
  ('Cc1ccc(F)cc1NC(=O)CSCc1c(C)noc1C', 9.91),
  ('Cc1ccc(OCc2n[nH]c(=S)n2-c2ccc(C)cc2)cc1', 47.3),
  ('Fc1cccc(Cl)c1CSc1ccc(-c2ccco2)nn1', 98.3),
  ('O=C(COc1cccnc1[N+](=O)[O-])Nc1ccc(Cl)cc1F', -1.28);

(Q) Which inhibition reading was recorded for the molecule CC1CC(C)(C)NC(=S)N1CCC(=O)N1CCN(Cc2ccccc2)CC1 (centres undefined) ?
(A) -28.3

(Q) Find the recorded inhibition belonging to "COc1cccc(NC(=O)Cn2c3ccc(F)cc3c3nc4n(c(=O)c32)CCS4)c1" and report it.
(A) -3.06

(Q) Fill in the blank: the reported inhibition of CC1CC(=O)Nc2ccccc2N1S(=O)(=O)c1cccs1 (centres undefined) is ____.
(A) -4.3

(Q) Reported inhibition, molecule "CCOc1ccc(NC(=O)COc2ccc(C(=O)N3CCC(C(N)=O)CC3)cc2OC)cc1" : ____
(A) -0.853

(Q) Fill blank: measured inhibition of the molecule CC(=O)Nc1ccc(NC(=O)C(NS(=O)(=O)c2ccc3c(c2)OCCO3)C(C)C)cc1 (centres undefined) is ____.
(A) 1.95

(Q) Which measured inhibition value corresponds to "S=c1[nH]nc2c3c4c(sc3ncn12)CCCC4" ?
(A) 97.9

(Q) Quick one: inhibition of "COc1ccc2[nH]c3ccc(OC)cc3c2c1" ?
(A) 97.3

(Q) Item under review: "O=C(COc1ccccc1F)Nc1nc(-c2ccccn2)cs1" . Reported inhibition?
(A) -5.87

(Q) Item "Brc1ccc(CSc2ccc(-c3ccco3)nn2)cc1" has what recorded inhibition?
(A) 98.2

(Q) Please give the measured inhibition for this molecule: "COc1ccc(-n2c(-c3ccc(OC)c(OC)c3)n[nH]c2=S)cc1"
(A) 94

(Q) Name the recorded inhibition for "O=C1N[C@@H](Cc2ccccc2)C(=O)N2[C@@H]3N(S(=O)(=O)c4ccc(F)cc4)c4ccccc4[C@]3(Br)C[C@@H]12" .
(A) -1.43

(Q) Endpoint output: inhibition of "CCOC(=O)N1CCN(C(=O)c2cc3c(-c4ccc(Cl)cc4)nn(C)c3s2)CC1" . Value?
(A) 72.2
